Values from patent US8377943B2

Molecular target: PTK2-phosphorylation at tyrosine 397 (pY397) (Homo sapiens)
Construct: endogenous in cells
Sequence (Q05397 whole entry): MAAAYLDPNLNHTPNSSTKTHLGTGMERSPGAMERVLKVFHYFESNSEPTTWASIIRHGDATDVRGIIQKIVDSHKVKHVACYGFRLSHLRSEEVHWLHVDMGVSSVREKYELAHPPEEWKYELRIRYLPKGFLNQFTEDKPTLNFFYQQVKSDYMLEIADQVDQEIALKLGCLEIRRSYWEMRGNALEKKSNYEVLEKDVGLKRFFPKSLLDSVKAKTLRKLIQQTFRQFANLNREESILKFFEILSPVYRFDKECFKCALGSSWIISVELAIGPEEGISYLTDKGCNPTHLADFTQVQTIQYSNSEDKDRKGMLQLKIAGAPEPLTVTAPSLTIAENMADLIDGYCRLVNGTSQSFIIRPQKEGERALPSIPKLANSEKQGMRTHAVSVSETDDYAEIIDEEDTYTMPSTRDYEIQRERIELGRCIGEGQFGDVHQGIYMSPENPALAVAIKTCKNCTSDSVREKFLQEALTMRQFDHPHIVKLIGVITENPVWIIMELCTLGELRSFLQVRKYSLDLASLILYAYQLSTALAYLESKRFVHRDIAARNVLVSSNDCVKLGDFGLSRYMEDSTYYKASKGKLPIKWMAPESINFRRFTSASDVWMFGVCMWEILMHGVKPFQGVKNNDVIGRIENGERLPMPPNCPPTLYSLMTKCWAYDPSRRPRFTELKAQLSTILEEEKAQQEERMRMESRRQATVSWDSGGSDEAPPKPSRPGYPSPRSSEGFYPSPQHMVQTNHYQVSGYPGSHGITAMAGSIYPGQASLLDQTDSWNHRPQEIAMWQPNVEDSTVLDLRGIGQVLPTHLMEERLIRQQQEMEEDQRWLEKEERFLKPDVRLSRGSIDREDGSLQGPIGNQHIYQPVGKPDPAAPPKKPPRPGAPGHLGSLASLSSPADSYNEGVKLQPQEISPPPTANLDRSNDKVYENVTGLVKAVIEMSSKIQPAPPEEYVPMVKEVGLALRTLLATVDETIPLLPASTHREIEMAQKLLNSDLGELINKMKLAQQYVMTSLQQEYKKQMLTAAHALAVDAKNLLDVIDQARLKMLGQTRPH
Test: Phospho-PTK2 (pY397) Assay in PC-3 cells
Conditions: PC-3 prostate carcinoma cells, 2 h incubation; read-out: PC3pPTK2 Y397 EC50
MEASURE: EC50 (nM)
Just the number please, in nM, no unit attached.

COc1cc(CNC2CCCC2)ccc1Nc1ncc(C(F)(F)F)c(NCc2ccc(C)cc2N(C)S(C)(=O)=O)n1 ... 0.63
COc1ccc(CNc2nc(Nc3ccc(NC(C)=O)c(Cl)c3)ncc2C(F)(F)F)c(N(C)S(C)(=O)=O)c1 ... 2

Below: the item to evaluate.
Lab note: need EC50 with PTK2-phosphorylation at tyrosine 397 (pY397) (Homo sapiens) for entry `COc1cc(C(=O)N[C@H]2CC[C@H](N3CCOCC3)CC2)ccc1Nc1ncc(C(F)(F)F)c(NCc2ccc(C)cc2N(C)S(C)(=O)=O)n1` , please look it up.
0.88
